B1: library; a variant is named by its letters at N, in order (parent)
chain: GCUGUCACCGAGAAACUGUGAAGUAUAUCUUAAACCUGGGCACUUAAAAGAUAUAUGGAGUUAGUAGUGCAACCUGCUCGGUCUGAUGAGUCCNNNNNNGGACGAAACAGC

- Variants of: B1
- procedure-summary: normalized RNA/DNA level without ligand (relative to sTRSVctl = 100) (log10 (% of sTRSVctl)); HEK293T; ligand: cyclic di-GMP (c-di-GMP-II aptamer); higher = less ribozyme self-cleavage, higher mRNA level
- condition-set: reporter: mCherry (pCS4076), ligand present: no
# normalized RNA/DNA level without ligand (log10) values compiled below
Could you respond with only the numeric value?

A selection of reference data follows.
Ask: Recorded normalized RNA/DNA level without ligand (log10) of GCUGUCACCGAGAAACUGUGAAGUAUAUCUUAAACCUGGGCACUUAAAAGAUAUAUGGAGUUAGUAGUGCAACCUGCUCGGUCUGAUGAGUCCCAUUGGGGACGAAACAGC [CAUUGG] , please.
Reply: 1.8

Ask: I would be grateful if you could share the reported normalized RNA/DNA level without ligand (log10) for GCUGUCACCGAGAAACUGUGAAGUAUAUCUUAAACCUGGGCACUUAAAAGAUAUAUGGAGUUAGUAGUGCAACCUGCUCGGUCUGAUGAGUCCUGCCCUGGACGAAACAGC [UGCCCU] .
Reply: 1.79

Ask: Can you look up the measured normalized RNA/DNA level without ligand (log10) of GCUGUCACCGAGAAACUGUGAAGUAUAUCUUAAACCUGGGCACUUAAAAGAUAUAUGGAGUUAGUAGUGCAACCUGCUCGGUCUGAUGAGUCCCCUAAGGGACGAAACAGC [CCUAAG] for me?
Reply: 1.56

Ask: Which normalized RNA/DNA level without ligand (log10) is reported for this variant? GCUGUCACCGAGAAACUGUGAAGUAUAUCUUAAACCUGGGCACUUAAAAGAUAUAUGGAGUUAGUAGUGCAACCUGCUCGGUCUGAUGAGUCCACGUUAGGACGAAACAGC [ACGUUA]
Reply: 1.49

Ask: Value lookup for normalized RNA/DNA level without ligand (log10); key = GCUGUCACCGAGAAACUGUGAAGUAUAUCUUAAACCUGGGCACUUAAAAGAUAUAUGGAGUUAGUAGUGCAACCUGCUCGGUCUGAUGAGUCCGAUCCCGGACGAAACAGC [GAUCCC]
Reply: 1.79

--- query ---
Ask: Requested read-out: normalized RNA/DNA level without ligand (log10). Entry: GCUGUCACCGAGAAACUGUGAAGUAUAUCUUAAACCUGGGCACUUAAAAGAUAUAUGGAGUUAGUAGUGCAACCUGCUCGGUCUGAUGAGUCCGACAUUGGACGAAACAGC [GACAUU]
Reply: 1.66

# credit: the supplement of paper PMC6757056
